- assayNotes: Calcium binding: fluorescence titration in Ca++ buffers (0-39 μM), Kd calculated
- statedConditions: fluorescence change on calcium binding
Examples of compounds with documented ΔF = Fb/Fo follow.
The response must contain the number and no unit.

compound: Cc1ccc(N(CC(=O)[O-])CC(=O)[O-])c(OCCOc2cc(CNS(=O)(=O)c3cccc4c(N(C)C)cccc34)ccc2N(CC(=O)[O-])CC(=O)[O-])c1.[K+].[K+].[K+].[K+] [Compound 5]
experimentalValue: 3

For reference, reported ΔF = Fb/Fo for Cc1ccc(N(CC(=O)[O-])CC(=O)[O-])c(OCCOc2cc(CNC(=O)c3c4oc5cc(O)ccc5nc-4ccc3=O)ccc2N(CC(=O)[O-])CC(=O)[O-])c1.[Li+].[Li+].[Li+].[Li+] [Compound 18] stands at 5

So for Cc1ccc(N(CC(=O)[O-])CC(=O)[O-])c(OCCOc2cc(CN3C(=O)c4cccc5c(N)ccc(c45)C3=O)ccc2N(CC(=O)[O-])CC(=O)[O-])c1.[K+].[K+].[K+].[K+] [Compound 13] , the logged ΔF = Fb/Fo turned out to be 12

Input Cc1ccc(N(CC(=O)[O-])CC(=O)[O-])c(OCCOc2cc(CNC(=O)c3cc(=O)cc4oc5cc(N(C)C)ccc5nc3-4)ccc2N(CC(=O)[O-])CC(=O)[O-])c1.[Li+].[Li+].[Li+].[Li+] [Compound 21] . Output ΔF = Fb/Fo: 11

====

- assayNotes: Absorption and fluorescence emission spectra of calcium binding compounds
- Assay type: physicochemical
- statedConditions: emission maximum, excited at wavelength of maximum absorption; Ca++ buffers 0-39 μM
attributeMeasured: λem (nm)
Give just the numeric value; nm need not be written.

structureAsSmiles: Cc1ccc(N(CC(=O)[O-])CC(=O)[O-])c(OCCOc2cc(CN3C(=O)c4cccc5c(N)ccc(c45)C3=O)ccc2N(CC(=O)[O-])CC(=O)[O-])c1.[K+].[K+].[K+].[K+]
λem (nm): 550
--
structureAsSmiles: Cc1ccc(N(CC(=O)[O-])CC(=O)[O-])c(OCCOc2cc(CNS(=O)(=O)c3cccc4c(N(C)C)cccc34)ccc2N(CC(=O)[O-])CC(=O)[O-])c1.[K+].[K+].[K+].[K+]
λem (nm): 549
--
structureAsSmiles: Cc1ccc(N(CC(=O)[O-])CC(=O)[O-])c(OCCOc2cc(CNC(=O)c3cc(=O)cc4oc5cc(N(C)C)ccc5nc3-4)ccc2N(CC(=O)[O-])CC(=O)[O-])c1.[Li+].[Li+].[Li+].[Li+]
λem (nm): 641

Shifting focus to the molecule that follows.
Looking up Cc1ccc(N(CC(=O)[O-])CC(=O)[O-])c(OCCOc2cc(CNC(=O)c3c4oc5cc(O)ccc5nc-4ccc3=O)ccc2N(CC(=O)[O-])CC(=O)[O-])c1.[Li+].[Li+].[Li+].[Li+] , I see its λem (nm) listed as 589

====

- assayNotes: Absorption and fluorescence emission spectra of calcium binding compounds
- Type: physicochemical
- statedConditions: wavelength of maximum absorption; 39 μM Ca++ buffer, 100 mM KCl, 30 mM MOPS pH7.2 (Compounds 5, 10, 13); Zero Ca++ buffer (Compound 18); npH2O (Compound 21)
attributeMeasured: λex (nm)

Before answering, review these 3 worked examples.
structureAsSmiles: Cc1ccc(N(CC(=O)[O-])CC(=O)[O-])c(OCCOc2cc(CNS(=O)(=O)c3cccc4c(N(C)C)cccc34)ccc2N(CC(=O)[O-])CC(=O)[O-])c1.[K+].[K+].[K+].[K+]
experimentalValue: 331 nm
--
structureAsSmiles: Cc1ccc(N(CC(=O)[O-])CC(=O)[O-])c(OCCOc2cc(CN3C(=O)c4cccc5c(N)ccc(c45)C3=O)ccc2N(CC(=O)[O-])CC(=O)[O-])c1.[K+].[K+].[K+].[K+]
experimentalValue: 432 nm
--
structureAsSmiles: Cc1ccc(N(CC(=O)[O-])CC(=O)[O-])c(OCCOc2cc(CNC(=O)c3cc(=O)cc4oc5cc(N(C)C)ccc5nc3-4)ccc2N(CC(=O)[O-])CC(=O)[O-])c1.[Li+].[Li+].[Li+].[Li+]
experimentalValue: 612 nm

// moving on: another record for λex (nm)
Value of measured λex (nm) for the entry Cc1ccc(N(CC(=O)[O-])CC(=O)[O-])c(OCCOc2cc(CNC(=O)c3c4oc5cc(O)ccc5nc-4ccc3=O)ccc2N(CC(=O)[O-])CC(=O)[O-])c1.[Li+].[Li+].[Li+].[Li+] : 550 nm

Entry source: patent US9846168B2
